Target: Sodium/hydrogen exchanger 1 (Homo sapiens, UniProt P19634)
Sequence (P19634 whole entry): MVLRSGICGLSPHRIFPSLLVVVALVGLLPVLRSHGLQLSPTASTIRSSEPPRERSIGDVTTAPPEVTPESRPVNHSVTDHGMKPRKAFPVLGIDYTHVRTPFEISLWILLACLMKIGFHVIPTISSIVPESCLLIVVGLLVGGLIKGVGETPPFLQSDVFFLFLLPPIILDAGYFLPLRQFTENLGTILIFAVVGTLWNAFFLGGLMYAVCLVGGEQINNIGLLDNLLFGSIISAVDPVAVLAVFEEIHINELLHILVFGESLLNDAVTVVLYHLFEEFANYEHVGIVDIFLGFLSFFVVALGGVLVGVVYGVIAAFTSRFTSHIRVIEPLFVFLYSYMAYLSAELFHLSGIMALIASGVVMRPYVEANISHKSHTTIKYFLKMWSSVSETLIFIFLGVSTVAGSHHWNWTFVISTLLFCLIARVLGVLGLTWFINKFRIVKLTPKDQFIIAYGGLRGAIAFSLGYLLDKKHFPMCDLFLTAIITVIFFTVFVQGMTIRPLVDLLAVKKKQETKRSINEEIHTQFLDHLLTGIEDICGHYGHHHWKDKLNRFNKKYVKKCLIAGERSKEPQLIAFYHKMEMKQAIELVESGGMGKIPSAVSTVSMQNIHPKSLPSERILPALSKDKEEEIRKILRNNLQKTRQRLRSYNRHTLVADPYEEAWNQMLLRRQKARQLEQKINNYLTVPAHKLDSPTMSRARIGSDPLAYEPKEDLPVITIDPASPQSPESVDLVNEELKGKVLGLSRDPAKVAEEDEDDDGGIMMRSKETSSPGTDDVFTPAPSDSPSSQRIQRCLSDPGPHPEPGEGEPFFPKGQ
Experiment: Inhibition of human NHE1 expressed in PS120 cells assessed as imposed acidosis
pIC50: −log10 of the molar value.
assay endpoint: pIC50

[[record]]
smiles_string = "COc1ccc(F)cc1-c1nc(C(=O)N=C(N)N)c(C)[nH]1.CS(=O)(=O)O.CS(=O)(=O)O"
reported_measurement = 6.10


1. COc1ccc(Cl)cc1-c1nc(C(=O)N=C(N)N)c(C)[nH]1.CS(=O)(=O)O.CS(=O)(=O)O
2. Cc1[nH]c(-c2ccccc2F)nc1C(=O)N=C(N)N
3. CS(=O)(=O)O.CS(=O)(=O)O.Cc1ccc(C)c(-c2nc(C(=O)N=C(N)N)c(C)[nH]2)c1
4. COc1ccccc1-c1nc(C(=O)N=C(N)N)c(C)[nH]1
Exercise: Please give the order of these molecules when sorted by pIC50, largest value leading. Labels, ranked as asked.
Solution: 1, 3, 4, 2
(1: 6.62, 3: 5.96, 4: 5.51, 2: 5.14)

A. Cc1oc(-c2cccc(F)c2)nc1C(=O)N=C(N)N
B. Cc1cc(C)cc(-c2nc(C(=O)N=C(N)N)c(C)o2)c1
C. Cc1oc(-c2cccc(Cl)c2)nc1C(=O)N=C(N)N
Exercise: Sort (3 molecules) by pIC50: min first. Labels, ranked as asked.
Solution: B, A, C
(B: 5.15, A: 5.38, C: 5.77)

====

Target: Sodium/hydrogen exchanger 1 (Homo sapiens, UniProt P19634)
Experiment: Inhibition of human NHE1 expressed in PS120 cells assessed as imposed acidosis
assay endpoint: IC50 (µM)

[[record]]
smiles_string = "CS(=O)(=O)O.Cc1[nH]c(-c2cc(Cl)cc(Cl)c2)nc1C(=O)N=C(N)N"
assay_endpoint = "IC50"
reported_measurement = 0.52

[[record]]
smiles_string = "COc1cccc(-c2nc(C(=O)N=C(N)N)c(C)[nH]2)c1"
assay_endpoint = "IC50"
reported_measurement = 4.1

[[record]]
smiles_string = "Cc1[nH]c(-c2cccc(Cl)c2Cl)nc1C(=O)N=C(N)N"
assay_endpoint = "IC50"
reported_measurement = 0.5

[[record]]
smiles_string = "Cc1cccc(-c2nc(C(=O)N=C(N)N)c(C)o2)c1"
assay_endpoint = "IC50"
reported_measurement = 6.6

[[record]]
smiles_string = "Cc1ccccc1-c1nc(C(=O)N=C(N)N)c(C)[nH]1"
assay_endpoint = "IC50"
reported_measurement = 2.4


P. CS(=O)(=O)O.CS(=O)(=O)O.Cc1[nH]c(-c2cc(Cl)ccc2Cl)nc1C(=O)N=C(N)N
Q. COc1ccc(-c2nc(C(=O)N=C(N)N)c(C)[nH]2)cc1OC
R. CS(=O)(=O)O.Cc1ccc(C)c(-c2nc(C(=O)N=C(N)N)c(C)o2)c1
Exercise: Please give the order of these compounds when sorted by IC50, largest value leading. Labels, ranked as asked.
Solution: Q, R, P
(Q: 2.1 µM, R: 0.22 µM, P: 0.1 µM)

====

Test system: Rattus norvegicus
Assay: Cardioprotective activity in Langendorff perfused rat myocardial infarction model assessed as ratio of myocardial infarction size to area at risk at 0.1 mg/kg, iv administered 5 mins before onset ischemia challenge followed by 90 mins reperfusion
Assay type: functional, Myocardium
Measured Activity accompanies every entry in the list below.
Respond numerically; units are % and should not be typed.

Example cases with answers are listed next.
[[record]]
compound = "CS(=O)(=O)O.Cc1oc(-c2cc(Cl)ccc2Cl)nc1C(=O)N=C(N)N"
assayed_target = "Rattus norvegicus"
unit_spec = "%"
reported_measurement = 39

[[record]]
compound = "CS(=O)(=O)O.CS(=O)(=O)O.Cc1[nH]c(-c2cc(Cl)ccc2Cl)nc1C(=O)N=C(N)N"
assayed_target = "Rattus norvegicus"
unit_spec = "%"
reported_measurement = 40


Exercise: Reported Activity, compound CC(C)c1ccc(C(=O)N=C(N)N)cc1S(C)(=O)=O.CS(=O)(=O)O [CARIPORIDE MESYLATE] : ____
Solution: 41
